FYI, the data here is from paper PMC3199943.

Biological target: TbINO1 (Trypanosoma brucei brucei, UniProt Q5QQ46)
Sequence (Q5QQ46 whole entry): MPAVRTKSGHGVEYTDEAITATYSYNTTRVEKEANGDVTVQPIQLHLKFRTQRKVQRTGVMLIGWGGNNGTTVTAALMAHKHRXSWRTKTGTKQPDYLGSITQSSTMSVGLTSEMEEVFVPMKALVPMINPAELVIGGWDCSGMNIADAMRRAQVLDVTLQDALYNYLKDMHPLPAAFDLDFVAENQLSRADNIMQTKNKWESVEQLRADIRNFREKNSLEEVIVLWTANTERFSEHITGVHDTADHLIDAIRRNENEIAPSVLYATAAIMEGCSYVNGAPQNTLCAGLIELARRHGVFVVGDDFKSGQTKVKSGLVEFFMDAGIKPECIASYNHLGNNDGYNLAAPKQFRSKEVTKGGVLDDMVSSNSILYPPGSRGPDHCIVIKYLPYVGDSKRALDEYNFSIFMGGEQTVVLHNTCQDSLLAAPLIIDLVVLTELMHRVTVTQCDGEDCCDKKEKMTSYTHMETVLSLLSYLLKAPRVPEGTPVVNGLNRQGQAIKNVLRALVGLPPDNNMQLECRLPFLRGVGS
Experiment: biochemical
Assay type: binding
Conditions: read-out: Tb Ino1 Tm Shift [˚C]

{"compound": "Oc1ccc(F)c(Cl)c1", "ΔTm at 1000 µM, °C": 0.02}
{"compound": "OCc1cnccn1", "ΔTm at 1000 µM, °C": 0.27}
{"compound": "O=C(O)c1ccc2ncccc2c1", "ΔTm at 1000 µM, °C": 0.57}
{"compound": "Cc1cc(N)no1", "ΔTm at 1000 µM, °C": 0.13}
{"compound": "O=C(O)c1cccc(-c2ccccn2)c1", "ΔTm at 1000 µM, °C": 0.19}
{"compound": "CC(=O)c1ccc(C#N)s1", "ΔTm at 1000 µM, °C": 0.24}
{"compound": "COC(=O)c1sccc1N [compound 241, methyl 3‐aminothiophene‐2‐carboxylate]", "ΔTm at 1000 µM, °C": 0.38}
{"compound": "Cn1ccc2cc(C(=O)O)ccc21", "ΔTm at 1000 µM, °C": 0}
{"compound": "O=C(O)c1cccc(-n2cccc2)c1", "ΔTm at 1000 µM, °C": 0.6}
{"compound": "Cc1cc(N)n(C)n1", "ΔTm at 1000 µM, °C": 0.54}
{"compound": "Cc1oc(-c2ccccc2)cc1CO", "ΔTm at 1000 µM, °C": 1.27}
{"compound": "c1cncc(-n2cccc2)c1", "ΔTm at 1000 µM, °C": 0.43}
{"compound": "NC(=S)C1=Cc2ccccc2OC1 [compound 558, 2H‐chromene‐3‐carbothioamide]", "ΔTm at 1000 µM, °C": 0.05}
{"compound": "CC(=O)c1ccc(F)c(F)c1", "ΔTm at 1000 µM, °C": 0.14}
{"compound": "c1ccc(-c2cnco2)cc1", "ΔTm at 1000 µM, °C": 0.95}
{"compound": "Cn1nc2ccccc2c1CO", "ΔTm at 1000 µM, °C": 0.29}
{"compound": "Cc1csc(C(=O)O)c1", "ΔTm at 1000 µM, °C": 0.08}
{"compound": "O=C(O)c1nsc(Cl)c1Cl", "ΔTm at 1000 µM, °C": 0.1}
{"compound": "Cn1ccc2c(C(=O)O)cccc21", "ΔTm at 1000 µM, °C": 0.63}
{"compound": "Nc1ccc(CN2CCOCC2)cc1", "ΔTm at 1000 µM, °C": 0.61}
{"compound": "Cc1cccc(O)n1", "ΔTm at 1000 µM, °C": 0.09}
{"compound": "O=C(O)c1cccc(N2CCCCC2)c1", "ΔTm at 1000 µM, °C": 1.23}
{"compound": "COC(=O)c1ccc(F)cc1Cl [compound 531, methyl 2‐chloro‐4‐fluorobenzoate]", "ΔTm at 1000 µM, °C": 0.25}
{"compound": "CC(=O)c1nccnc1C", "ΔTm at 1000 µM, °C": 0.4}
{"compound": "Cc1nc(C(C)(C)C)cs1", "ΔTm at 1000 µM, °C": 0.23}
{"compound": "Cc1occc(=O)c1O [compound 74, 3‐hydroxy‐2‐methyl‐4H‐pyran‐4‐one]", "ΔTm at 1000 µM, °C": 1.13}
{"compound": "CC(=O)c1ccc(S(C)(=O)=O)cc1 [compound 604, 1‐[4‐(methylsulfonyl)phenyl]ethan‐1‐one]", "ΔTm at 1000 µM, °C": 0.18}
{"compound": "N#Cc1ncccc1N1CCCCC1", "ΔTm at 1000 µM, °C": 0.16}
{"compound": "Nc1cccc(Oc2ccccn2)c1", "ΔTm at 1000 µM, °C": 0.23}
{"compound": "O=C(O)C1CCCO1 (stereo not shown) [compound 42, tetrahydro‐2‐furancarboxylic acid]", "ΔTm at 1000 µM, °C": 0.3}
{"compound": "CCCc1nccs1", "ΔTm at 1000 µM, °C": 0.22}
{"compound": "Cn1ccc(N)n1", "ΔTm at 1000 µM, °C": 0.09}
{"compound": "Cc1nc(N)ccc1C#N", "ΔTm at 1000 µM, °C": 0.27}
{"compound": "O=C(O)c1ccc(-c2nccs2)cc1", "ΔTm at 1000 µM, °C": 0.36}
